EXPERIMENT_NOTES: LNP zeta potential
Type: physicochemical
CONDITIONS: mRNA LNP
Use class 1 when the recorded Zeta potential (mV) is no lower than -2 mV; use class 0 when it is lower.

Reported Zeta potential (mV) reaches at least -2 mV for CCCCCCCCC(C(=O)NCCCCCCCCCC(=O)OCC1CC=CCC1)N(CCCN(C)C)C(=O)CCCCCCCCCC(=O)OC(CCCCCC)CCCCCC (stereo not drawn) ?
class 1

# check: Zeta potential (mV) of CCCCCCCCNC(=O)C(CCCCCCCC)N(CCN(CCO)CCO)C(=O)CCCCCCC(=O)OC(CCCCCCCC)CCCCCCCC (stereo not drawn) is greater than or equal to -2 mV
class 1

For this compound, is measured Zeta potential (mV) -2 mV or higher? `CCCCCCC(CCCCCC)OC(=O)CCCCCCCCCNC(=O)CN(CCN(C)CCN(CC(=O)NCCCCCCCCCC(=O)OC(CCCCCC)CCCCCC)C(=O)CCCCCCCCCC(=O)OC(CCCCCC)CCCCCC)C(=O)CCCCCCCCCC(=O)OC(CCCCCC)CCCCCC`
class 0

Quick check, Zeta potential (mV) >= -2 mV? CCCCCCCCCCOCCCCCCCC(=O)N(CCCN(C)C)C(CCCCCCCC)C(=O)NCCCCCCCC (stereo not drawn)
class 1

Given CCCCCCCCNC(=O)CCCCCNC(=O)C(CCCCCCCC)N(CCCN(C)C)C(=O)CCCCCC(=O)NC(CCCCCCC)CCCCCCC (stereo not drawn) , state whether its Zeta potential (mV) is at least -2 mV.
class 0

Dear colleague, could you confirm whether CCCCCCCCC(C(=O)NCCCCCCCCCC(=O)OCC1CC=CCC1)N(CCCN1CCCC1)C(=O)CCCCCCCCCC(=O)OC(CCCCCC)CCCCCC (stereo not drawn) has Zeta potential (mV) at or above -2 mV?
class 0
